Values were extracted from patent US9156883B2.

Reported ELISA signal by item:
# target.of.assay: REFACTO® (factor VIII-like polypeptide, amino acids 1-743 and 1638 through 2332 of human factor VIII) (Homo sapiens)
# Construct: amino acids 1-743 and 1638 through 2332 of human factor VIII; purchased Genetics Institute, Inc. (Cambridge, Mass.)
# Sequence (P00451 20-762): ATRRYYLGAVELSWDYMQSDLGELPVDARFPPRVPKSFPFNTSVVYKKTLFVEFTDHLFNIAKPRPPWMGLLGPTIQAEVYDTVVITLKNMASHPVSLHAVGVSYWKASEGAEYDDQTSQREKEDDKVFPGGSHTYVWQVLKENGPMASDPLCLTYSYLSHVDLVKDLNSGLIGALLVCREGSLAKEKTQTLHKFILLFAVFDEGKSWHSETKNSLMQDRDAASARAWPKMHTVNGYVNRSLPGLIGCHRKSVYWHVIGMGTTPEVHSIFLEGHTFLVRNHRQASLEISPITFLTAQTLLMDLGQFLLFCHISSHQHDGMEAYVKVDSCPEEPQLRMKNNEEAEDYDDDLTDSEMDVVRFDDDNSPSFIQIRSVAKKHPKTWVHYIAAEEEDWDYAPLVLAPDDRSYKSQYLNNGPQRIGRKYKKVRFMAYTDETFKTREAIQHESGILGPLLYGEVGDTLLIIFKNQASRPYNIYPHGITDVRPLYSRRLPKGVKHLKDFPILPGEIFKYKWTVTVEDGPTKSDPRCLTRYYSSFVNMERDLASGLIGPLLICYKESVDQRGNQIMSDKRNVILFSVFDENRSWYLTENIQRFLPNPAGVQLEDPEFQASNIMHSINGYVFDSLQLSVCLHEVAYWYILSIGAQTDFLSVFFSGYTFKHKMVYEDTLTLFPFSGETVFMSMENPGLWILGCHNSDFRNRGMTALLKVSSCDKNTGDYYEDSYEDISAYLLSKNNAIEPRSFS
# Sequence (P00451 1657-2351): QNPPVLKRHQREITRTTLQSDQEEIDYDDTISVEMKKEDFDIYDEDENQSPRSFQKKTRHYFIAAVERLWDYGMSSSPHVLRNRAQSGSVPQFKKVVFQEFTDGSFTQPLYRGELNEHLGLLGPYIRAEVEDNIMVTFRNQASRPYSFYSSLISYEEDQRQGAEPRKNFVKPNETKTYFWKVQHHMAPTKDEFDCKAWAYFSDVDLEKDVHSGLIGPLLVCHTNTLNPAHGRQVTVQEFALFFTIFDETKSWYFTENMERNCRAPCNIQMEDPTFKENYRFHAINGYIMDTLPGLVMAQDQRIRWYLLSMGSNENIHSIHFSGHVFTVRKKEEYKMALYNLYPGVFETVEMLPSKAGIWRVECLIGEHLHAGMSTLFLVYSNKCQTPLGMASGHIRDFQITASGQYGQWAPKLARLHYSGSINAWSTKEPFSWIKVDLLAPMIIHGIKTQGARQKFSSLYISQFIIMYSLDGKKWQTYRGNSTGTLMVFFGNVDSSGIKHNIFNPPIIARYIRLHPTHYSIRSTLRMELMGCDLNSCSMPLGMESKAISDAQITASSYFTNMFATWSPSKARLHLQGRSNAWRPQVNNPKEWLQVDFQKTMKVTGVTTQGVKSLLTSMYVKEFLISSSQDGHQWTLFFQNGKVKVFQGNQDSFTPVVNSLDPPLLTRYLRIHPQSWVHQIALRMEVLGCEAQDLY
# assay.procedure: Phage ELISA of third-round isolates for binding to the factor VIII target
# measurement.conditions: TN9 library phage isolates; HRP anti-M13, TMB, absorbance at OD630
# Text: The techniques described above were employed to isolate high affinity binding molecules for ligands for recombinantly produced factor VIII-like polypeptide consisting of two segments of human factor VIII, i.e., amino acids 1-743 and 1638 through 2332 of human factor VIII, as described in U.S. Pat. No. 5,661,008 (Almstedt et al.), obtained under the commercial designation of REFACTO® from Genetics Institute, Inc. (Cambridge, Mass.). […]
test.readout: ELISA signal

{"substance": "09 (FCWVFPFQHCA; Selected Phage Display Sequence) [compound 09]", "observed.value": 1.1}
{"substance": "03 (FCWVFNFSHCS; Selected Phage Display Sequence) [compound 03]", "observed.value": 1.1}
{"substance": "06 (FCWVFPFHHCF; Selected Phage Display Sequence) [compound 06]", "observed.value": 0.3}
{"substance": "11 (FCHVFPFLHCD; Selected Phage Display Sequence) [compound 11]", "observed.value": 0.2}
